These measurements were taken from PubChem BioAssay (Tox21).

Assay Method Text: qHTS assay to identify small molecule antagonists of the estrogen related receptor signaling pathway with the pleiotropic PPARgamma coactivator (PGC) from Tox21 10K library - cell viability counter screen (AID 1224840); also: nearly all actives have a fitted effect of over 40% in size; also: potency is read from the fitted curve at half-maximal effect
Measurement Context: PGC/ERR reporter cells viability, CellTiter-Fluor, 17.5 h; series mostly up to 92.4 µM
Procedure: National Center for Advancing Translational Sciences [NCATS] NIH Chemical Genomics Center [NCGC] U.S. Environmental Protection Agency [EPA] National Institutes of Environmental Health Sciences [NIEHS] National Toxicology Program [NTP] […] The PGC/ERR cells were dispensed at 2,000 cells/5 ul/well in 1536-well white plates using a Multidrop dispenser. […] After 30-minute incubation at 37 C/5% CO2, the fluorescence intensity in the plates was measured using a ViewLux plate reader.
Results filed as inconclusive are left out. Activity calls are given as the source filed them. Calls follow the shape of the dose curve; as a rule, active = well fitted cell-killing curve with a large enough effect in the repeat runs (not every such curve was filed as active); inconclusive = weak or mixed curves, or effect the other way; inactive = no such curve, though single readings can be large or run the other way.
Value Type: Potency

| Compound | Result |
| --- | --- |
| CCC(C)Nc1ccc(NC(C)CC)cc1 (centres undefined) | 15.7 µM (active) |
| O=c1[nH]sc2ccccc12 | 48.6 µM (active) |
| CN(C)c1ccc(SC#N)cc1 | inactive |
| CC(C)OC(=O)c1cc2c(OCC(O)CNC(C)(C)C)cccc2[nH]1 (centres undefined) | inactive |
